src = patent US6864246B2

experiment: Solubility at saturation of F12511 in solvents at 25° C.; format: physicochemical; details: corn oil, 25 °C, oil or lipid, thermodynamic from solid, Corn oil, 25° C.; read-out: Solubility at saturation
measurement kind: solubility (µg/mL)
// return numeric value only (unit: µg/mL, not printed)

# get_value(readout='solubility', item= CCCCCCCCCCCCS[C@H](C(=O)Nc1cc(C)c(O)c(C)c1C)c1ccccc1 [Example F12511] )
300

---

test: physchem; conditions: 25 °C, aqueous with cosolvent or surfactant or cyclodextrin, thermodynamic from solid, Amount of F12511 solubilized
measurement kind: solubility at 2 h

Data request, read-out solubility at 2 h, for CCCCCCCCCCCCS[C@H](C(=O)Nc1cc(C)c(O)c(C)c1C)c1ccccc1
~10 µg/mL
